tested on: OneTaq polymerase; experiment: PCR-based screen and amplification of DNA containing unnatural base pairs, OneTaq (Example 1); assay type: biochemical; settings: OneTaq, 1 min Extension, 52 cycles, D6 template
quantity_kind: Amplification, ×10^12

Worked examples, 3 molecules total:
smiles	Amplification, ×10^12
COc1cc(I)c(F)cc1[C@H]1C[C@H](O)[C@@H](COP(=O)(O)OP(=O)(O)OP(=O)(O)O)O1.O=P(O)(O)OP(=O)(O)OP(=O)(O)OC[C@H]1O[C@@H](n2ccc3ccsc3c2=S)C[C@@H]1O	8.7 ×10^12
C#Cc1cc(OC)c([C@H]2C[C@H](O)[C@@H](COP(=O)(O)OP(=O)(O)OP(=O)(O)O)O2)cc1F.O=P(O)(O)OP(=O)(O)OP(=O)(O)OC[C@H]1O[C@@H](n2cc(F)c3ccsc3c2=S)C[C@@H]1O	6.3 ×10^12
COc1cc(I)c(F)cc1[C@H]1C[C@H](O)[C@@H](COP(=O)(O)OP(=O)(O)OP(=O)(O)O)O1.O=P(O)(O)OP(=O)(O)OP(=O)(O)OC[C@H]1O[C@@H](n2cc(F)c3ccsc3c2=S)C[C@@H]1O	8.2 ×10^12

Now for a further molecule.
stdin: Query (molecule): C#Cc1cc(OC)c([C@H]2C[C@H](O)[C@@H](COP(=O)(O)OP(=O)(O)OP(=O)(O)O)O2)cc1F.O=P(O)(O)OP(=O)(O)OP(=O)(O)OC[C@H]1O[C@@H](n2ccc3ccsc3c2=S)C[C@@H]1O ; field requested: Amplification, ×10^12
stdout: 10.4 ×10^12

* * *

Hi there, I'd appreciate the recorded Retention, % for every entry that follows.
test system: OneTaq polymerase; experiment: PCR-based screen and amplification of DNA containing unnatural base pairs, OneTaq (Example 1); assay type: biochemical; details: OneTaq, 16 cycles, 1 min extension
Numbers only, in %.

Consider the worked cases shown below.
compound	quantity_unit	data_value
COc1cc2ccccc2cc1[C@H]1C[C@H](O)[C@@H](COP(=O)(O)OP(=O)(O)OP(=O)(O)O)O1.O=P(O)(O)OP(=O)(O)OP(=O)(O)OC[C@H]1O[C@@H](n2ccc3ccsc3c2=S)C[C@@H]1O [TPT3-NaM]	%	99.23
COc1ccc([C@H]2C[C@H](O)[C@@H](COP(=O)(O)OP(=O)(O)OP(=O)(O)O)O2)c(OC)c1.O=P(O)(O)OP(=O)(O)OP(=O)(O)OC[C@H]1O[C@@H](n2ccc3ccsc3c2=S)C[C@@H]1O [TPT3-DMO]	%	84.02

stdin: Recorded Retention, % of COc1cc(C)ccc1[C@H]1C[C@H](O)[C@@H](COP(=O)(O)OP(=O)(O)OP(=O)(O)O)O1.O=P(O)(O)OP(=O)(O)OP(=O)(O)OC[C@H]1O[C@@H](n2ccc3ccsc3c2=S)C[C@@H]1O [TPT3-MMO2] , please.
stdout: 90.95
